Assayed system: human C5aR(CD88) (Homo sapiens, UniProt P21730)
Construct: expressed in transfected cells; host or cells: rat basophilic leukemia cells (RBL)
Sequence (P21730 whole entry): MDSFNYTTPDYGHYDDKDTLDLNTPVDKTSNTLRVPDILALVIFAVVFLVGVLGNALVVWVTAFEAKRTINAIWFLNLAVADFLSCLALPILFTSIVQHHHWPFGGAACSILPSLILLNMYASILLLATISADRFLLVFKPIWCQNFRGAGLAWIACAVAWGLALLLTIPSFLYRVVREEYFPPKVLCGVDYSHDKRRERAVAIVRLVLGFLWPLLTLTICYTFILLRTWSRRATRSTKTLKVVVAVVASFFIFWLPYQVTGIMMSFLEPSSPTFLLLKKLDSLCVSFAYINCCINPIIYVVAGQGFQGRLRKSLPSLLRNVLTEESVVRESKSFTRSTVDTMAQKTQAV
Measurement description: Determination of the IC50 value in an enzyme release assay (functional assay, antagonistic activity)
Assay type: cell-based
Test parameters: antagonistic activity; IC50 group in enzyme release assay, RBL cells expressing human C5aR(CD88); read-out: activity (group)
pIC50: −log10 of the molar value. Starred links: 1 amine or outer side, 2 acyl side, 3 side chain; linkers in the order of their positions; H or OH if unused. Positions of bridges follow the written chain, without caps; N, C: chain ends. Non-standard residues stand in square brackets, D forms with d. Residues, ends and D or L forms follow the SMILES beside them. ξ: configuration not given here. *: point of attachment. Dihydroorotyl(S) = O=C1C[C@@H](C(=O)*)NC(=O)N1; Phe(3-Cl) = N[C@@H](Cc1cccc(Cl)c1)C(=O)O; NMe2Phe = CN(C)[C@@H](Cc1ccccc1)C(=O)*; Phe(3-F) = N[C@@H](Cc1cccc(F)c1)C(=O)O; Phe(4-F) = N[C@@H](Cc1ccc(F)cc1)C(=O)O; 1Nal = N[C@@H](Cc1cccc2ccccc12)C(=O)O; Bta = N[C@@H](Cc1csc2ccccc12)C(=O)O; Hyp = O=C(O)[C@@H]1C[C@@H](O)CN1; PhLac = O=C(O)[C@@H](O)Cc1ccccc1; d(hLeu) = CC(C)CC[C@@H](N)C(=O)O; ξNip = O=C(C1CCCN([*:1])C1)[*:2]; Cit = NC(=O)NCCC[C@H](N)C(=O)O; dCha = N[C@H](CC1CCCCC1)C(=O)O; Nle = CCCC[C@H](N)C(=O)O; Orn = NCCC[C@H](N)C(=O)O; Aze = O=C(O)[C@@H]1CCN1; Ms = CS(=O)(=O)*
Provide the reported pIC50 of each item.

Below: 3 molecules and their reported pIC50.
Molecule	Recorded result
CC(=O)N[C@@H](Cc1ccccc1)C(=O)N[C@@H](CCCN)C(=O)N1CCC[C@H]1C(=O)N[C@H](CC1CCCCC1)C(=O)N[C@@H](Cc1csc2ccccc12)C(=O)N[C@@H](Cc1cccc2ccccc12)C(N)=O [Compound 249, Ac-Phe-Orn-Pro-cha-Bta-1Ni—NH2] (Ac-F[Orn]P[dCha][Bta][1Nal]-NH2)	6.70 to 7.30
CC(=O)N[C@@H](Cc1ccccc1)C(=O)N[C@H]1CCCNC(=O)[C@H](Cc2ccccc2)NC(=O)[C@H](Cc2c[nH]c3ccccc23)NC(=O)[C@@H](CC2CCCCC2)NC(=O)[C@@H]2C[C@@H](OC(C)=O)CN2C1=O [Compound 176, Ac-Phe-[Orn-HyA-cha-Trp-Phe]] (Ac-F[Orn][Hyp](Ac)[dCha]WF; lactam 2-C)	6.70 to 7.30
CC(=O)N[C@@H](Cc1ccc(F)cc1)C(=O)N[C@@H](CCCN)C(=O)N1CCC[C@H]1C(=O)N[C@H](CCC(C)C)C(=O)N[C@@H](Cc1cccc(Cl)c1)C(=O)N[C@@H](Cc1ccc(F)cc1)C(N)=O [Compound 171, Ac-Pff-Orn-Pro-hle-Mcf-Pff-NH2] (Ac-[Phe(4-F)][Orn]P[d(hLeu)][Phe(3-Cl)][Phe(4-F)]-NH2)	6.70 to 7.30

Each molecule below has a reported value. Please supply its pIC50.
1. CC(=O)N[C@@H](Cc1cccc(F)c1)C(=O)N[C@@H](CCCN)C(=O)N1CCC[C@H]1C(=O)N[C@H](CC1CCCCC1)C(=O)N[C@@H](Cc1csc2ccccc12)C(=O)N[C@@H](Cc1ccccc1)C(N)=O [Compound 161, Ac-Mff-Orn-Pro-cha-Bta-Phe-NH2] (Ac-[Phe(3-F)][Orn]P[dCha][Bta]F-NH2)
2. CS(=O)(=O)N[C@@H](Cc1ccccc1)C(=O)N[C@@H](CCCN)C(=O)N1CC[C@H]1C(=O)N[C@H](CC1CCCCC1)C(=O)N[C@@H](Cc1csc2ccccc12)C(=O)N[C@@H](Cc1ccccc1)C(N)=O [Compound 96, CH3—SO2-Phe-Orn-Aze-cha-Bta-Phe-NH2] (Ms-F[Orn][Aze][dCha][Bta]F-NH2)
3. CC(C)CC[C@@H](NC(=O)[C@@H]1CCCN1C(=O)[C@H](CCCN)NC(=O)[C@H](Cc1ccccc1)NC(=O)[C@@H]1CC(=O)NC(=O)N1)C(=O)N[C@@H](Cc1csc2ccccc12)C(=O)N[C@@H](Cc1ccccc1)C(N)=O [Compound 350, Hoo-Phe-Orn-Pro-hle-Bta-Phe-NH2] ({Dihydroorotyl(S)}-F[Orn]P[d(hLeu)][Bta]F-NH2)
4. CCCC[C@@H]1NC(=O)[C@H](Cc2c[nH]c3ccccc23)NC(=O)[C@@H](CCC(C)C)NC(=O)[C@@H]2C[C@@H](O)CN2C(=O)[C@@H](NC(=O)[C@@H](O)Cc2ccccc2)CCCNC1=O [Compound 392, Ohf-[Orn-Hyp-hle-Trp-Nle]] (H-[PhLac][Orn][Hyp][d(hLeu)]W[Nle]; lactam 2-C)
5. CC(C)CC[C@@H](NC(=O)[C@@H]1CCCN1C(=O)[C@H](CCCNC(N)=O)NC(=O)[C@H](Cc1ccccc1)NC(=O)C1CCCNC1)C(=O)N[C@@H](Cc1csc2ccccc12)C(=O)N[C@@H](Cc1ccccc1)C(N)=O (stereo partly drawn) [Compound 346, H-Nip-Phe-Cit-Pro-hle-Bta-Phe-NH2] (ξNip-F[Cit]P[d(hLeu)][Bta]F-NH2)
6. CN(C)[C@@H](Cc1ccccc1)C(=O)N[C@@H](CCCN)C(=O)N1CCC[C@H]1C(=O)N[C@H](CC1CCCCC1)C(=O)N[C@@H](Cc1c[nH]c2ccccc12)C(=O)N[C@@H](Cc1ccccc1)C(N)=O [Compound 69, Me2-Phe-Orn-Pro-cha-Trp-Phe-NH2] (NMe2Phe-[Orn]P[dCha]WF-NH2)
7. CC(=O)N[C@@H](Cc1cccc(F)c1)C(=O)N[C@@H](CCCN)C(=O)N1CCC[C@H]1C(=O)N[C@H](CCC(C)C)C(=O)N[C@@H](Cc1csc2ccccc12)C(=O)N[C@@H](Cc1ccccc1)C(N)=O [Compound 162, Ac-Mff-Orn-Pro-hle-Bta-Phe-NH2] (Ac-[Phe(3-F)][Orn]P[d(hLeu)][Bta]F-NH2)
8. CC(=O)N[C@@H](Cc1ccccc1)C(=O)N[C@@H](CCCN)C(=O)N1CCC[C@H]1C(=O)N[C@H](CCC(C)C)C(=O)N[C@@H](Cc1csc2ccccc12)C(=O)N[C@@H](Cc1cccc2ccccc12)C(N)=O [Compound 270, Ac-Phe-Orn-Pro-hle-Bta-1Ni—NH2] (Ac-F[Orn]P[d(hLeu)][Bta][1Nal]-NH2)

["6.70 to 7.30", "7.30 to 7.70", "7.30 to 7.70", "6.70 to 7.30", "6.70 to 7.30", "6.70 to 7.30", "6.70 to 7.30", "6.70 to 7.30"]

Per the record, CC(=O)N[C@@H](Cc1ccccc1)C(=O)N[C@@H](CCCN)C(=O)N1CCC[C@H]1C(=O)N[C@H](CCC(C)C)C(=O)N[C@@H](Cc1c[nH]c2ccccc12)C(=O)N[C@@H](Cc1ccccc1)C(N)=O [Compound 306, Ac-Phe-Orn-Pro-hle-Trp-Phe-NH2] (Ac-F[Orn]P[d(hLeu)]WF-NH2) has pIC50 of 6.70 to 7.30
